The following compounds are shown together with reported cytotoxicity at 70.5 h values.
# assayExplanation: Human HepG2 cell viability assay in 384 well format
# Format: toxicity, cell-based
# Set-up: dose 125 nL, time 70.5 hour; concentration not given beside the values
# testConditions: HepG2 cells, read-out: Inhibition
measurementType: cytotoxicity at 70.5 h (%)

[[record]]
compound = "C[C@H]1CN(C(=O)N(C)C)C[C@@]12CCN(c1ccsc1)C2=O"
measurementtype = "cytotoxicity at 70.5 h"
unitslabel = "%"
valuereported = -8.12

[[record]]
compound = "CC(C)N(C)S(=O)(=O)N(C)Cc1cnn(Cc2ccccc2)c1"
measurementtype = "cytotoxicity at 70.5 h"
unitslabel = "%"
valuereported = 3.45

[[record]]
compound = "O=C(c1cnccn1)N1CCCC(Cn2cc(C3CC3)nn2)C1 (configuration not stated)"
measurementtype = "cytotoxicity at 70.5 h"
unitslabel = "%"
valuereported = 15.7

[[record]]
compound = "CN1CCCCCC1C(=O)N1CCCN(c2ccccc2)CC1 (configuration not stated)"
measurementtype = "cytotoxicity at 70.5 h"
unitslabel = "%"
valuereported = 4.68

[[record]]
compound = "CCN1CCN(C(=O)c2cc(F)cc3nc(C)c(C)nc23)CC1"
measurementtype = "cytotoxicity at 70.5 h"
unitslabel = "%"
valuereported = -12.2

[[record]]
compound = "CC(=O)c1cccc(NC(=O)Cn2nc(-c3cccs3)oc2=O)c1"
measurementtype = "cytotoxicity at 70.5 h"
unitslabel = "%"
valuereported = 10.5

[[record]]
compound = "Cc1cc(C)c(CNc2ncnc3ccccc23)c(=O)[nH]1"
measurementtype = "cytotoxicity at 70.5 h"
unitslabel = "%"
valuereported = -2.78

[[record]]
compound = "CC(C#N)(NC(=O)COc1ccccc1Br)C1CC1 (configuration not stated)"
measurementtype = "cytotoxicity at 70.5 h"
unitslabel = "%"
valuereported = 8.66

[[record]]
compound = "O=C1CCC2(CCCN(C(=O)Cc3cccnc3)C2)N1 (configuration not stated)"
measurementtype = "cytotoxicity at 70.5 h"
unitslabel = "%"
valuereported = -6.68

[[record]]
compound = "O=C(Nc1nc2c(s1)CNCC2)NC1CCCC1"
measurementtype = "cytotoxicity at 70.5 h"
unitslabel = "%"
valuereported = 18.7

[[record]]
compound = "O=S(=O)(CC1CCCCO1)Nc1cc(F)ccc1-n1cccn1 (configuration not stated)"
measurementtype = "cytotoxicity at 70.5 h"
unitslabel = "%"
valuereported = 9.49

[[record]]
compound = "N#CC(NC(=O)CCCOc1cccnc1)c1ccc(F)cc1F (configuration not stated)"
measurementtype = "cytotoxicity at 70.5 h"
unitslabel = "%"
valuereported = 6.82


###

# assayExplanation: Human HepG2 cell viability assay in 384 well format
# Assay type: toxicity, cell-based
# Parameters: dose 125 nL, time 70.5 hour; concentration not given beside the values
# testConditions: HepG2 cells, read-out: Inhibition
measurementType: cytotoxicity at 70.5 h (%)

[[record]]
compound = "Cc1nc(CSc2nc(=O)ccn2C(C)C)cs1"
measurementtype = "cytotoxicity at 70.5 h"
unitslabel = "%"
valuereported = -6.6

[[record]]
compound = "COc1ccc(Cl)cc1S(=O)(=O)N(C)CC(=O)Nc1ccccc1"
measurementtype = "cytotoxicity at 70.5 h"
unitslabel = "%"
valuereported = -9.85

[[record]]
compound = "Cc1ccc(NC(=O)N2CCN(Cc3ccccn3)CC2)cc1Cl"
measurementtype = "cytotoxicity at 70.5 h"
unitslabel = "%"
valuereported = 30.4

[[record]]
compound = "CCCC(=O)N1CCCC(c2ccccn2)C1 (configuration not stated)"
measurementtype = "cytotoxicity at 70.5 h"
unitslabel = "%"
valuereported = -1.3

[[record]]
compound = "CCN(CC)CCC(=O)NCc1cc2n(n1)CCN(C(=O)N(C)C)C2"
measurementtype = "cytotoxicity at 70.5 h"
unitslabel = "%"
valuereported = -11.8

[[record]]
compound = "CC(C)NS(=O)(=O)c1cc(C(=O)O)cc(-c2ccccc2CO)c1"
measurementtype = "cytotoxicity at 70.5 h"
unitslabel = "%"
valuereported = -3.6

[[record]]
compound = "CCS(=O)(=O)N1CCc2ccc(NC(=O)Nc3cccc(SC)c3)cc21"
measurementtype = "cytotoxicity at 70.5 h"
unitslabel = "%"
valuereported = 63.9

[[record]]
compound = "Cc1nc(-c2ccnn2C)cc(C2CCCN(S(C)(=O)=O)C2)n1 (configuration not stated)"
measurementtype = "cytotoxicity at 70.5 h"
unitslabel = "%"
valuereported = -6.24

[[record]]
compound = "CC(C)c1nn(C)c(N(C)C)c1CNC1CCN(C2CC2)CC1"
measurementtype = "cytotoxicity at 70.5 h"
unitslabel = "%"
valuereported = -2.94

[[record]]
compound = "c1ncn(CC2CCCN2Cc2csc(C3CCCCC3)n2)n1 (configuration not stated)"
measurementtype = "cytotoxicity at 70.5 h"
unitslabel = "%"
valuereported = 1.84

[[record]]
compound = "Cc1ccccc1CC(=O)N(C)C1CCCC1"
measurementtype = "cytotoxicity at 70.5 h"
unitslabel = "%"
valuereported = -4.43

[[record]]
compound = "CCc1ccc(CN2CCCCC2c2n[nH]cc2-c2cc(C)no2)cc1 (configuration not stated)"
measurementtype = "cytotoxicity at 70.5 h"
unitslabel = "%"
valuereported = -5.56

